molecular target: PTEN (Mus musculus); construct: endogenous in cells; host or cells: NIH3T3; experiment: PTEN preliminary data (western blots); type: cell-based
Sequence (O08586 whole entry): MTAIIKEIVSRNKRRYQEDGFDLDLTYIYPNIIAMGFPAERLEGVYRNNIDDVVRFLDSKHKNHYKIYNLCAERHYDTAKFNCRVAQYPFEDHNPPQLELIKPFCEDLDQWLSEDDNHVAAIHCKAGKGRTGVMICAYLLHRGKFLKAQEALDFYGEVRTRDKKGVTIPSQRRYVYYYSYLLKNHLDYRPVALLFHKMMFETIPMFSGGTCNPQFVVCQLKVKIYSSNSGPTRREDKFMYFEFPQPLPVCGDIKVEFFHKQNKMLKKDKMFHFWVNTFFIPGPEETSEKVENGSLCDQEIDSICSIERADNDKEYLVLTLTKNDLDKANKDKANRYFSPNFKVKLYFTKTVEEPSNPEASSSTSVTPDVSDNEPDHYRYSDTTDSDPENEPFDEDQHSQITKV
Observed property: IC50
The number alone won't do; follow it with the unit.

Under PTEN (Mus musculus): IC50 value of `O=C([O-])c1nccc2ccccc12.[K+].[K+].[O-][O-].[O-][O-].[O]=[V+3]` ?
101 nM

Under PTEN (Mus musculus): IC50 value of `O=C([O-])c1ccc(O)cn1.[K+].[K+].[O-2].[O-][O-].[O-][O-].[V+5]` ?
211 nM

Under PTEN (Mus musculus): IC50 value of `O.O.O.OO.OO.[K+].[OH-].[V].c1cnc2c(c1)ccc1cccnc12` ?
275 nM

The reported numbers originate from patent US7692012B2.
